Data provenance is patent US12115226B2.

- System: antigen HER2-positive ovarian cancer cell line SK-OV-3
- assay.explanation: In vitro cytotoxicity of ADC (CellTiter Glo), SK-OV-3
- Assay type: cell-based
- study.conditions: 0.1% O2, 168 hours, ADC DAR about 4
Square brackets hold non-standard residues; d marks the D form. Peptide text beside a SMILES is read from it. * marks the point of attachment. Dolaproine = CO[C@@H]([C@@H]1CCCN1)[C@@H](C)C(=O)O; Dil = CC[C@H](C)[C@H](NC)[C@@H](CC(=O)O)OC; X1 = C[C@@H](N*)[C@@H](O)c1ccccc1; NMeV = CN[C@H](C(=O)O)C(C)C
measured.attribute: pIC50
Please note pIC50 is a logarithmic value: minus log10 of concentration in mol/L. Answer with that number alone.

Which pIC50 value is on record for CC[C@H](C)[C@@H]([C@@H](CC(=O)N1CCC[C@H]1[C@H](OC)[C@@H](C)C(=O)N[C@H](C)[C@@H](O)c1ccccc1)OC)N(C)C(=O)[C@@H](NC(=O)[C@@H](NC)C(C)C)C(C)C [MMAE, monomethyl auristatin E] (H-[NMeV]V[Dil][Dolaproine]-X1) ?
9.27
